tested on: Mycobacterium tuberculosis Erdman (autoluminescent); assay: GRinf, maximum normalised growth rate inhibition (three-drug combination) (unitless (-1 to 1)); higher = less effect (negative = killing); conditions: in vitro model: acidic pH 5.7; time point: constant (~7 days, model-specific)
Measure name: GRinf

INSERT INTO results (compound, measure_name, observed_value) VALUES
  ('COc1nc2ccc(Br)cc2cc1[C@@H](c1ccccc1)[C@@](O)(CCN(C)C)c1cccc2ccccc12 [bedaquiline] + CC(=O)NC[C@H]1CN(c2ccc(N3CCOCC3)c(F)c2)C(=O)O1 [linezolid] + COc1c(N2C[C@@H]3CCCN[C@@H]3C2)c(F)cc2c(=O)c(C(=O)O)cn(C3CC3)c12 [moxifloxacin]', 'GRinf', -0.483),
  ('CC[C@@H](CO)NCCN[C@@H](CC)CO [ethambutol] + CC(=O)NC[C@H]1CN(c2ccc(N3CCOCC3)c(F)c2)C(=O)O1 [linezolid] + NC(=O)c1cnccn1 [pyrazinamide]', 'GRinf', -0.314),
  ('CC(C)/N=c1\cc2n(-c3ccc(Cl)cc3)c3ccccc3nc-2cc1Nc1ccc(Cl)cc1 [clofazimine] + CC[C@@H](CO)NCCN[C@@H](CC)CO [ethambutol] + O=[N+]([O-])c1cn2c(n1)OC[C@@H](OCc1ccc(OC(F)(F)F)cc1)C2 [pretomanid]', 'GRinf', -0.436),
  ('CC(C)/N=c1\cc2n(-c3ccc(Cl)cc3)c3ccccc3nc-2cc1Nc1ccc(Cl)cc1 [clofazimine] + COc1c(N2C[C@@H]3CCCN[C@@H]3C2)c(F)cc2c(=O)c(C(=O)O)cn(C3CC3)c12 [moxifloxacin] + O=[N+]([O-])c1cn2c(n1)OC[C@@H](OCc1ccc(OC(F)(F)F)cc1)C2 [pretomanid]', 'GRinf', -0.331),
  ('COc1nc2ccc(Br)cc2cc1[C@@H](c1ccccc1)[C@@](O)(CCN(C)C)c1cccc2ccccc12 [bedaquiline] + NNC(=O)c1ccncc1 [isoniazid] + CO[C@H]1/C=C/O[C@@]2(C)Oc3c(C)c(O)c4c(O)c(c(/C=N/N5CCN(C)CC5)c(O)c4c3C2=O)NC(=O)/C(C)=C\C=C\[C@H](C)[C@H](O)[C@@H](C)[C@@H](O)[C@@H](C)[C@H](OC(C)=O)[C@@H]1C [rifampicin]', 'GRinf', -0.45);

Supply GRinf value. Item: O=[N+]([O-])c1cn2c(n1)OC[C@@H](OCc1ccc(OC(F)(F)F)cc1)C2 [pretomanid] + NC(=O)c1cnccn1 [pyrazinamide] + CO[C@H]1/C=C/O[C@@]2(C)Oc3c(C)c(O)c4c(O)c(c(/C=N/N5CCN(C6CCCC6)CC5)c(O)c4c3C2=O)NC(=O)/C(C)=C\C=C\[C@H](C)[C@H](O)[C@@H](C)[C@@H](O)[C@@H](C)[C@H](OC(C)=O)[C@@H]1C [rifapentine]
-0.227

Supply GRinf value. Item: CC(C)/N=c1\cc2n(-c3ccc(Cl)cc3)c3ccccc3nc-2cc1Nc1ccc(Cl)cc1 [clofazimine] + CC[C@@H](CO)NCCN[C@@H](CC)CO [ethambutol] + CO[C@H]1/C=C/O[C@@]2(C)Oc3c(C)c(O)c4c(O)c(c(/C=N/N5CCN(C)CC5)c(O)c4c3C2=O)NC(=O)/C(C)=C\C=C\[C@H](C)[C@H](O)[C@@H](C)[C@@H](O)[C@@H](C)[C@H](OC(C)=O)[C@@H]1C [rifampicin]
-0.0788

Supply GRinf value. Item: NNC(=O)c1ccncc1 [isoniazid] + O=[N+]([O-])c1cn2c(n1)OC[C@@H](OCc1ccc(OC(F)(F)F)cc1)C2 [pretomanid] + CO[C@H]1/C=C/O[C@@]2(C)Oc3c(C)c(O)c4c(O)c(c(/C=N/N5CCN(C)CC5)c(O)c4c3C2=O)NC(=O)/C(C)=C\C=C\[C@H](C)[C@H](O)[C@@H](C)[C@@H](O)[C@@H](C)[C@H](OC(C)=O)[C@@H]1C [rifampicin]
-0.11

Supply GRinf value. Item: COc1c(N2C[C@@H]3CCCN[C@@H]3C2)c(F)cc2c(=O)c(C(=O)O)cn(C3CC3)c12 [moxifloxacin] + NC(=O)c1cnccn1 [pyrazinamide] + CO[C@H]1/C=C/O[C@@]2(C)Oc3c(C)c(O)c4c(O)c(c(/C=N/N5CCN(C6CCCC6)CC5)c(O)c4c3C2=O)NC(=O)/C(C)=C\C=C\[C@H](C)[C@H](O)[C@@H](C)[C@@H](O)[C@@H](C)[C@H](OC(C)=O)[C@@H]1C [rifapentine]
-0.164

Supply GRinf value. Item: CC(C)/N=c1\cc2n(-c3ccc(Cl)cc3)c3ccccc3nc-2cc1Nc1ccc(Cl)cc1 [clofazimine] + NNC(=O)c1ccncc1 [isoniazid] + COc1c(N2C[C@@H]3CCCN[C@@H]3C2)c(F)cc2c(=O)c(C(=O)O)cn(C3CC3)c12 [moxifloxacin]
0.301

Supply GRinf value. Item: CC(C)/N=c1\cc2n(-c3ccc(Cl)cc3)c3ccccc3nc-2cc1Nc1ccc(Cl)cc1 [clofazimine] + O=[N+]([O-])c1cn2c(n1)OC[C@@H](OCc1ccc(OC(F)(F)F)cc1)C2 [pretomanid] + CO[C@H]1/C=C/O[C@@]2(C)Oc3c(C)c(O)c4c(O)c(c(/C=N/N5CCN(C6CCCC6)CC5)c(O)c4c3C2=O)NC(=O)/C(C)=C\C=C\[C@H](C)[C@H](O)[C@@H](C)[C@@H](O)[C@@H](C)[C@H](OC(C)=O)[C@@H]1C [rifapentine]
-0.186

Supply GRinf value. Item: CC(C)/N=c1\cc2n(-c3ccc(Cl)cc3)c3ccccc3nc-2cc1Nc1ccc(Cl)cc1 [clofazimine] + CC(=O)NC[C@H]1CN(c2ccc(N3CCOCC3)c(F)c2)C(=O)O1 [linezolid] + NC(=O)c1cnccn1 [pyrazinamide]
-0.367

All values here come from the supplement of paper PMC8617591.
